- targetUnderTest: T1, E. coli alkaline phosphatase Strep-tag®II fusion protein (E. coli, UniProt P00634 22-471 = phosphatase)
- T1 construct: mature; also called BAP-StrepII; BAP-StrepIII
- T1 sequence (P00634 22-471): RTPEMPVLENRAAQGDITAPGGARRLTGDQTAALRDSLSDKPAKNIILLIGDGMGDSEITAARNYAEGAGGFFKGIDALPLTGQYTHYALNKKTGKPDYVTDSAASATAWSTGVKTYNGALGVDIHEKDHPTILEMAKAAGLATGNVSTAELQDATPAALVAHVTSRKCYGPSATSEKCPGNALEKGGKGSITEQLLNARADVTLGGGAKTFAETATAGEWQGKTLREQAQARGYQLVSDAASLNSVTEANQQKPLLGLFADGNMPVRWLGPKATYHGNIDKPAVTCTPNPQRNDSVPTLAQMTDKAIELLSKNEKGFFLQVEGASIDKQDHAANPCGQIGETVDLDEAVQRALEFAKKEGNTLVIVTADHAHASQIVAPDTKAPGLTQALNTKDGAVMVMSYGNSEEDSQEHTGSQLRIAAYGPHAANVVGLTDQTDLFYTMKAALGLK
- assayComment: ELISA, mutein coated, BAP-StrepII titrated
testReadout: Kd (nM)
Could you give me the number in nM? Just the number is fine.

>  <binder>
mutein“1”-m207 (designed binder, Library 6 clone on mutein “1”, 118 and 119 deleted) EAGITGTWYNQLGSTFIVTAGADGALTGTYVTARGNAESRYVLTGRYDSAPATDGSGTALGWTVAWKNNYRNAHSATTWSGQYVGGAEARINTQWLLTSGTTETWLSTLVGHDTFTKVKPSAAS

>  <testReadout>
Kd

>  <readoutValue>
27

$$$$

Now look at this one.
Return Kd for the following binder: mutein“1”-m301 (designed binder, Library 7 clone on mutein “1”, 118 and 119 deleted) EAGITGTWYNQLGSTFIVTAGADGALTGTYVTARGNAESRYVLTGRYDSAPATDGSGTALGWTVAWKNNYRNAHSATTWSGQYVGGAEARINTQWLLTSGTTEHWMSTLVGHDTFTKVKPSAAS 10

Where do the numbers come from? From patent US20210139545A1.
